- assay: yeast display, Sf9 membrane polyspecificity reagent, FACS + sequencing; frameworks hold sequencing errors
measured_quantity: polyreactivity (PSR sort gate)

Example sequences with recorded polyreactivity (PSR sort gate):
1) QVQLVESGGGLGQAGGSLRLSCAASGFTFYYYAMGWYRQAPGKERELVAAISYSGGSTYYADSVKGRFTISRDNAKNTVYLQMNSLKPEDTARYYCAADLSTYSRGFDYWGQGTQVTVSS
high polyreactivity
2) QVQLVQSGGGLVQAGGSLRLSCAASGRIFPRYGMGWYRQAPGKERELCADITSSGSTYADSVKGRFTISRDNAKNTDYLQMHSLKPEDTAVYYCNALDRRLSYSWRYRQLYDYWGQGTQGTVSS
high polyreactivity
3) QVQLVESGGGLVQAGGSLRLSCASSGLTFYGNAMVWYRPAPGKERELVAAISSSGGTTYYADSVKGRFTISRDNAKNTVYLQMTSLKPEDTAVYYCAARPSGGYESTRTRDYWGQGTQVTVSS
low polyreactivity
4) QVQLVESGGGLVQAVGSLRLSCAASGSTFKAYAMGWYRQAPGKERELVAAITKSGGRTYYADSVKGRFTISRDNAKNTVYLQMNSLKPEDTAVYYCAAVFRPDSSAYRYYYLGQGTQVTVSS
high polyreactivity

Here's the next entry for you.
# polyreactivity (PSR sort gate) lookup, item QVQLVESGGGLVQAGGSLRLSCAASGFTFAYYAMGWYRPAPGKERELVAAISSGGSTDYADSVKGRFTISRDNAKNTVYLQMNSLKPEDTAVYYCNAVVVRLWYDYDYWGQGTQVTVSS
low polyreactivity
